system.tested: Macrophage-stimulating protein receptor (Homo sapiens) (UniProt Q04912)
Sequence (Q04912 25-304 limits assumed): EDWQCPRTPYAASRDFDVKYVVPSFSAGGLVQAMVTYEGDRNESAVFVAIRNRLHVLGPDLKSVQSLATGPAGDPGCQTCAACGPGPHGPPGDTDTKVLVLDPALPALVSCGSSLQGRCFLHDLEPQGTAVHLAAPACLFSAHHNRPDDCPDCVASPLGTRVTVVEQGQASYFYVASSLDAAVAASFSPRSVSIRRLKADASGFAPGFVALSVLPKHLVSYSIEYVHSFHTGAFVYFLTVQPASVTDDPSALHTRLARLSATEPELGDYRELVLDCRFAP
Sequence (Q04912 310-1400 limits assumed): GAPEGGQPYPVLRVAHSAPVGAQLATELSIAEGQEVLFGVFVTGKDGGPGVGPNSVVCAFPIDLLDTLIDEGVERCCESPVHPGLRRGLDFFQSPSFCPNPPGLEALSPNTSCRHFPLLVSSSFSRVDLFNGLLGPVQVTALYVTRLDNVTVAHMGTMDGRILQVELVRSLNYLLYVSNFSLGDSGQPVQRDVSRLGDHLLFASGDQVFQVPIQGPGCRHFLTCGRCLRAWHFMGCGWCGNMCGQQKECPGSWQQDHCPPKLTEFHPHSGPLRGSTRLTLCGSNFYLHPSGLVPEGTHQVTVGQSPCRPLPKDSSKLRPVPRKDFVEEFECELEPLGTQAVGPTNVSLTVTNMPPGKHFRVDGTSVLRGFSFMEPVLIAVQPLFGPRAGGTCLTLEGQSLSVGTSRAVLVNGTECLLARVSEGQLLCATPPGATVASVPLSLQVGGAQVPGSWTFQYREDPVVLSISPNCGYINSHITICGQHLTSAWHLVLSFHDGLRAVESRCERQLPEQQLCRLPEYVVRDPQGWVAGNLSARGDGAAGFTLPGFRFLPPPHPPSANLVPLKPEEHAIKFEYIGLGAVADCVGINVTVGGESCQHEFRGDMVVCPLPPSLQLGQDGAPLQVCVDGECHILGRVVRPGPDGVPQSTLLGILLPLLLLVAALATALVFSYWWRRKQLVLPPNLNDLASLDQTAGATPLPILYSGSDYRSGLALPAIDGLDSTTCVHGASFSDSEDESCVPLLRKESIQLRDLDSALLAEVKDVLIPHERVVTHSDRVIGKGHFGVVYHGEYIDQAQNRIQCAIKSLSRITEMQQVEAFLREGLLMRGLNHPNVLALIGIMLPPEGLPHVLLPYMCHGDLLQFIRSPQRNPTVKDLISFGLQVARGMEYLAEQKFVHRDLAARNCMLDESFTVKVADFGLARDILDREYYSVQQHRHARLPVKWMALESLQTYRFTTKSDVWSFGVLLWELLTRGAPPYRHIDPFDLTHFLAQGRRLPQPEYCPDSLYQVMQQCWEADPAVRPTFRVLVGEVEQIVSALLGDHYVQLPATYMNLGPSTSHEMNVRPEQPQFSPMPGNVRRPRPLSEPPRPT
details: at 1 µM
Decide by residual activity: equal to or exceeding 90% means T, less means F.

compound	system.tested	classification
O=c1[nH]c2ccccc2n1C1CCN(Cc2ccc(-c3nc4cc5[nH]cnc5cc4nc3-c3ccccc3)cc2)CC1	Macrophage-stimulating protein receptor (Homo sapiens) (UniProt Q04912)	T
C[S+]([O-])c1ccc(-c2nc(-c3ccc(F)cc3)c(-c3ccncc3)[nH]2)cc1 (stereo not given)	Macrophage-stimulating protein receptor (Homo sapiens) (UniProt Q04912)	T
N/C(=N\[N+](=O)[O-])N/N=C\c1ccc(-c2cccc([N+](=O)[O-])c2)o1	Macrophage-stimulating protein receptor (Homo sapiens) (UniProt Q04912)	F
O=[N+]([O-])/C=C/c1ccc2c(c1)OCO2	Macrophage-stimulating protein receptor (Homo sapiens) (UniProt Q04912)	T

* * *

The entries below are paired with their reported residual activity.
system.tested: Tyrosine-protein kinase Tec (Homo sapiens)
details: at 10 µM
attribute.measured: residual activity (%)

compound	system.tested	result
COc1ccc2c(c1)/C(=C/c1cnc[nH]1)C(=O)N2	Tyrosine-protein kinase Tec (Homo sapiens)	70
CCc1nc(-c2ccc(OC)cc2)[nH]c1-c1ccncc1	Tyrosine-protein kinase Tec (Homo sapiens)	75
COc1cc(OC)c(/C=C2\C(=O)Nc3ccccc32)c(OC)c1	Tyrosine-protein kinase Tec (Homo sapiens)	77
COc1cc2ncnc(Nc3ccc(OCc4ccccc4)cc3)c2cc1OC	Tyrosine-protein kinase Tec (Homo sapiens)	67
O=[N+]([O-])/C=C/c1ccc2c(c1)OCO2	Tyrosine-protein kinase Tec (Homo sapiens)	90
CCn1cnc2c(Nc3cccc(Cl)c3)nc(N[C@@H]3CCCC[C@@H]3N)nc21	Tyrosine-protein kinase Tec (Homo sapiens)	7
CC(C)(C)c1cc(C=C(C#N)C#N)cc(Br)c1O	Tyrosine-protein kinase Tec (Homo sapiens)	103
c1cc(-c2cnn3cc(-c4ccc(OCCN5CCCCC5)cc4)cnc23)ccn1	Tyrosine-protein kinase Tec (Homo sapiens)	75
O=C1NC(=O)c2c1c1c3ccccc3n3c1c1c2c2ccccc2n1C1CCC3O1	Tyrosine-protein kinase Tec (Homo sapiens)	76
C[S+]([O-])c1ccc(-c2nc(-c3ccc(F)cc3)c(-c3ccncc3)[nH]2)cc1 (stereo not given)	Tyrosine-protein kinase Tec (Homo sapiens)	89

* * *

residual activity reference
system.tested: Protein kinase C zeta type (Homo sapiens) (UniProt Q05513)
Sequence (whole entry): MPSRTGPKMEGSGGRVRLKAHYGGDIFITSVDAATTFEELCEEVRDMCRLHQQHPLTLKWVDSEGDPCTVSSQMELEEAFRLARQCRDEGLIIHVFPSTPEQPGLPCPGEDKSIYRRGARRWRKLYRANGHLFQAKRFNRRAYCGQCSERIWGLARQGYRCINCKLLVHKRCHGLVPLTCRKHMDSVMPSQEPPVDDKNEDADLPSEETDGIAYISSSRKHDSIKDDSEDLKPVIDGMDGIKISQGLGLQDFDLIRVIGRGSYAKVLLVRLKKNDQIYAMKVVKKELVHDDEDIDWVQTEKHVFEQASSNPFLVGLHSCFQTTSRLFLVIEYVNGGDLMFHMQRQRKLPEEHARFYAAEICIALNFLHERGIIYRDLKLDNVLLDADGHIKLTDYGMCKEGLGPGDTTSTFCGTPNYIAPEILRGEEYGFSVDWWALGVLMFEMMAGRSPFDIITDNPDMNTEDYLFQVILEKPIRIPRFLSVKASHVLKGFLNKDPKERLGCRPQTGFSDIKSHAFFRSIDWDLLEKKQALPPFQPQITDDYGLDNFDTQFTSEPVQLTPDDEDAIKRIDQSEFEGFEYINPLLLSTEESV
details: at 10 µM

molecule	display.unit	residual activity
COc1cc2ncnc(Nc3ccc(OCc4ccccc4)cc3)c2cc1OC	%	108
O=C1Nc2ccc3ncsc3c2/C1=C/c1c[nH]cn1	%	53
CCc1nc(-c2ccc(OC)cc2)[nH]c1-c1ccncc1	%	104
O=[N+]([O-])/C=C/c1ccc2c(c1)OCO2	%	114
C[S+]([O-])c1ccc(-c2nc(-c3ccc(F)cc3)c(-c3ccncc3)[nH]2)cc1 (centres undefined)	%	111
N/C(=N\[N+](=O)[O-])N/N=C\c1ccc(-c2cccc([N+](=O)[O-])c2)o1	%	98
O=c1[nH]c2ccccc2n1C1CCN(Cc2ccc(-c3nc4cc5[nH]cnc5cc4nc3-c3ccccc3)cc2)CC1	%	97
COc1ccc2c(c[n+](C)c3c4cc5c(cc4ccc23)OCO5)c1OC	%	75
CC(C)[C@H](CO)Nc1nc(Nc2cccc(Cl)c2)c2ncn(C(C)C)c2n1	%	117

* * *

Listed molecules paired with reported residual activity
system.tested: Receptor-type tyrosine-protein kinase FLT3 (Homo sapiens) (UniProt P36888)
Sequence (P36888 whole entry): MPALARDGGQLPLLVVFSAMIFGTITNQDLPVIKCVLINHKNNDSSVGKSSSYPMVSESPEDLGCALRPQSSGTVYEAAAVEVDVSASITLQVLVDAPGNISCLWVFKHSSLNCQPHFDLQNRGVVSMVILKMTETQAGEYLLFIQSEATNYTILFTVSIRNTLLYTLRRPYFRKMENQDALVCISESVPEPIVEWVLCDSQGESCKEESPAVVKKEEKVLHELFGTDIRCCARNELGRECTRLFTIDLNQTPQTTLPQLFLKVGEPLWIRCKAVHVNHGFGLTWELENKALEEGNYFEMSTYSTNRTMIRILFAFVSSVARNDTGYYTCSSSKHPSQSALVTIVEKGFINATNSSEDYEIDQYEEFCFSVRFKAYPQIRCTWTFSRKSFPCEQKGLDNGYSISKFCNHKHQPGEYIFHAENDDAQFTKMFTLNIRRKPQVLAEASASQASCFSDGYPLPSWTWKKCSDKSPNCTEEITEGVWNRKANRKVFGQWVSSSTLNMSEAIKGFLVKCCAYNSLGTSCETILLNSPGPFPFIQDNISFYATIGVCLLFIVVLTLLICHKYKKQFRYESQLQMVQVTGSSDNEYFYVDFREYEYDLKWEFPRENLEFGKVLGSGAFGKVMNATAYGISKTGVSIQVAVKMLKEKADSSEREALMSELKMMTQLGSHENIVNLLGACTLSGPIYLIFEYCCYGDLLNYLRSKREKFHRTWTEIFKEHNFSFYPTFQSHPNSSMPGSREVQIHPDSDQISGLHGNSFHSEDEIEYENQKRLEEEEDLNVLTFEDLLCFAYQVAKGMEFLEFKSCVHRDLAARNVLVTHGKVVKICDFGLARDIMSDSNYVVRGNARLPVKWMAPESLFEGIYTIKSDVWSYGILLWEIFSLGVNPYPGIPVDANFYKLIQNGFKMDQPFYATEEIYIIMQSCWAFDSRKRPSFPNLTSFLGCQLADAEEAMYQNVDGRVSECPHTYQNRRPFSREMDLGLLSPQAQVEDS
details: at 1 µM
attribute.measured: residual activity (%)

1. O=c1[nH]c2ccccc2n1C1CCN(Cc2ccc(-c3nc4cc5[nH]cnc5cc4nc3-c3ccccc3)cc2)CC1 95
2. COc1ccc2c(c1)/C(=C/c1cnc[nH]1)C(=O)N2 10
3. O=C1c2ccccc2-c2nc3nnnn3nc21 103
4. O=[N+]([O-])/C=C/c1ccc2c(c1)OCO2 95

* * *

system.tested: MAP kinase-activated protein kinase 5 (Homo sapiens)
details: at 10 µM
# residual activity per entry
attribute.measured: residual activity

1) CC(C)[C@H](CO)Nc1nc(Nc2cccc(Cl)c2)c2ncn(C(C)C)c2n1 59%
2) O=[N+]([O-])/C=C/c1ccc2c(c1)OCO2 70%
3) COC(=O)[C@@]1(O)C[C@H]2O[C@]1(C)n1c3ccccc3c3c4c(c5c6ccccc6n2c5c31)C(=O)NC4 0%
4) CCn1cnc2c(Nc3cccc(Cl)c3)nc(N[C@@H]3CCCC[C@@H]3N)nc21 124%
5) COc1cc2ncnc(Nc3ccc(OCc4ccccc4)cc3)c2cc1OC 83%
6) CC(C)(C)c1cc(C=C(C#N)C#N)cc(Br)c1O 65%

* * *

system.tested: Mitogen-activated protein kinase 8 (Homo sapiens) (UniProt P45983)
Sequence (P45983 whole entry): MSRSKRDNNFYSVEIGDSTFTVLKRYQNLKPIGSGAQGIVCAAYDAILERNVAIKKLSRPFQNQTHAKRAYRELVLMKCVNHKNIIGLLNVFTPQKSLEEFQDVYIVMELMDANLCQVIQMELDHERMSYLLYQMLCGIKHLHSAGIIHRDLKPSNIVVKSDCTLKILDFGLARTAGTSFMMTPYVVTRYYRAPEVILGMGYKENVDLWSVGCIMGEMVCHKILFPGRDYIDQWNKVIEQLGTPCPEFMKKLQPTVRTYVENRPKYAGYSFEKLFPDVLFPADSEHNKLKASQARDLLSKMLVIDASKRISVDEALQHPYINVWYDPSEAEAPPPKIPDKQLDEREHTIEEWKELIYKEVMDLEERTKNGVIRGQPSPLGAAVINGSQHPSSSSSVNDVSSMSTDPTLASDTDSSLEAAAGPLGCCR
details: at 1 µM
Description: Millipore: Percentage of residual kinase activity of MAPK8 at 1uM relative to control. Control inhibitor: Jnk Inhibitor II at 100.0uM. Buffer: 50 mM Tris pH 7.5, 0.1 mM EGTA, 0.1% ? -mercaptoethanol

compound	residual activity [%]
COc1ccc2c(c[n+](C)c3c4cc5c(cc4ccc23)OCO5)c1OC	100
CC(C)(C)c1cc(C=C(C#N)C#N)cc(Br)c1O	116
c1cc(-c2cnn3cc(-c4ccc(OCCN5CCCCC5)cc4)cnc23)ccn1	117
C[S+]([O-])c1ccc(-c2nc(-c3ccc(F)cc3)c(-c3ccncc3)[nH]2)cc1 (configuration not stated)	111
COC(=O)[C@@]1(O)C[C@H]2O[C@]1(C)n1c3ccccc3c3c4c(c5c6ccccc6n2c5c31)C(=O)NC4	-12
O=c1[nH]c2ccccc2n1C1CCN(Cc2ccc(-c3nc4cc5[nH]cnc5cc4nc3-c3ccccc3)cc2)CC1	110
COc1cc2ncnc(Nc3ccc(OCc4ccccc4)cc3)c2cc1OC	102

* * *

system.tested: Mitogen-activated protein kinase 9 (Homo sapiens) (UniProt P45984)
Sequence (P45984 whole entry, looked up): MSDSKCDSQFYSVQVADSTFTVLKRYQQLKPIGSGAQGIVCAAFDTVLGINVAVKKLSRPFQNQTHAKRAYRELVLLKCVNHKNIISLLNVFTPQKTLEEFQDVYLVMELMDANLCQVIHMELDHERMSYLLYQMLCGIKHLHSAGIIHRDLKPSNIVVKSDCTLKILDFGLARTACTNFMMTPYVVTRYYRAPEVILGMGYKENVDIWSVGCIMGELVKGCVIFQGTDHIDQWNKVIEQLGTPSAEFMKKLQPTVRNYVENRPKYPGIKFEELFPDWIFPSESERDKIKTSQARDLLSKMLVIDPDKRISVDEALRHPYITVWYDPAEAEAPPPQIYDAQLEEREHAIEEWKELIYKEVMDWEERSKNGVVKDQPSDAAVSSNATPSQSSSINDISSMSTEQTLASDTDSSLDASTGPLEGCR
details: at 1 µM
Description: Millipore: Percentage of residual kinase activity of MAPK9 at 1uM relative to control. Control inhibitor: Jnk Inhibitor II at 100.0uM. Buffer: 50 mM Tris pH 7.5, 0.1 mM EGTA, 0.1% ?-mercaptoethanol
Would you mind labelling by residual activity? At or over 90% is 1, under is -1.

1) O=C1c2ccccc2-c2nc3nnnn3nc21 1
2) O=c1[nH]c2ccccc2n1C1CCN(Cc2ccc(-c3nc4cc5[nH]cnc5cc4nc3-c3ccccc3)cc2)CC1 1
3) CC(C)(C)c1cc(C=C(C#N)C#N)cc(Br)c1O 1
4) O=[N+]([O-])/C=C/c1ccc2c(c1)OCO2 1
5) COc1ccc2c(c1)/C(=C/c1cnc[nH]1)C(=O)N2 -1
6) COC(=O)[C@@]1(O)C[C@H]2O[C@]1(C)n1c3ccccc3c3c4c(c5c6ccccc6n2c5c31)C(=O)NC4 -1
7) O=C1Nc2ccc3ncsc3c2/C1=C/c1c[nH]cn1 -1

* * *

system.tested: Tyrosine-protein kinase receptor TYRO3 (Homo sapiens) (UniProt Q06418)
Sequence (whole entry): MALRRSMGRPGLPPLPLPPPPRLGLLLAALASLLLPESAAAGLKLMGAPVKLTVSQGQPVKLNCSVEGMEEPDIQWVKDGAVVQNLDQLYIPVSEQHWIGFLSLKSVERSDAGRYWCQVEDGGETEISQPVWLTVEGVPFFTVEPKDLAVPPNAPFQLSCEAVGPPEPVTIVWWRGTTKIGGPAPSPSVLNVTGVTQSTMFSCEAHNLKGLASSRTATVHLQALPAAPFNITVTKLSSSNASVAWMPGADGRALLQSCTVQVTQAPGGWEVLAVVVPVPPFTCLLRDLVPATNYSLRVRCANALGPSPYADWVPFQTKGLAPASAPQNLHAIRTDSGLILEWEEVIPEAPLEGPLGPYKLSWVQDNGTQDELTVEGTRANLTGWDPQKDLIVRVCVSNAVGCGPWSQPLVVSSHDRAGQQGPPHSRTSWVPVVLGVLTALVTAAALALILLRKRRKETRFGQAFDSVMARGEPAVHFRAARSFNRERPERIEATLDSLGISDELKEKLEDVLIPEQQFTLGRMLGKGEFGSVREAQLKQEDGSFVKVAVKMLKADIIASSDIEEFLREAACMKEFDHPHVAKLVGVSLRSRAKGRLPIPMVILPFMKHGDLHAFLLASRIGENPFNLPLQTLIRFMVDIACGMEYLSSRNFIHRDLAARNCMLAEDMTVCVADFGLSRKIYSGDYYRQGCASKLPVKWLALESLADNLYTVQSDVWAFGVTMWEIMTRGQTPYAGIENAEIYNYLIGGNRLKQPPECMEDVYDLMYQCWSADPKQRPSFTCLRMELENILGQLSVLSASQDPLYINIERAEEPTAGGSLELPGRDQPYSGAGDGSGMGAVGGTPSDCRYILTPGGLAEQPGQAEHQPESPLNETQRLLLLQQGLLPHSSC
details: at 10 µM
We begin with a simple list: items and their reported residual activity.
attribute.measured: residual activity (%)

1) O=C1Nc2ccc3ncsc3c2/C1=C/c1c[nH]cn1 45
2) O=C1c2ccccc2-c2nc3nnnn3nc21 114
3) COc1ccc2c(c1)/C(=C/c1cnc[nH]1)C(=O)N2 73
4) CCc1nc(-c2ccc(OC)cc2)[nH]c1-c1ccncc1 108
5) COc1ccc2c(c[n+](C)c3c4cc5c(cc4ccc23)OCO5)c1OC 79
6) O=[N+]([O-])/C=C/c1ccc2c(c1)OCO2 111
